Reported 160 nM FC (mGrn mRNA) values for the following substances.
Tested on: mGrn mRNA
Experiment: mGrn mRNA qPCR in Neuro2a cells transfected with ASOs
Type: cell-based, mouse
Details: Table 16; Neuro2A, 160 nM, transfection
Method: 57 ASOs targeting the Grn promoter (− strand) were screened in Neuro2a cells. Neuro2a cells were transfected with 100 nM of each of the ASOs listed in Table 14 and cells were harvested 48 hours later for Grn mRNA quantification using qPCR. Housekeeping genes for normalization were Gapdh and Ppia. […] CO-3544 was modified to include PO/PS bonds and the efficacy in upregulating mGrn mRNA was determined. […]
Oligonucleotides are written 5' to 3', each unit as a sugar letter and its base; * is a phosphorothioate linkage, no mark a phosphodiester; rarer units and linkages stand in square brackets, end groups in braces. Plain capitals give the bases only. e = 2'-O-(2-methoxyethyl) (MOE); [5mC] = 5-methylcytosine
Number in FC, nothing else.

Guide cases for 160 nM FC (mGrn mRNA), answers given:
Short answer please: 160 nM FC (mGrn mRNA), mGrn mRNA, entry CO-5303: CO-3595 modified to include varying PO/PS internucleotide bonds (antisense e[5mC]*e[5mC]*eTeGeAeAe[5mC]eTeGeTeAeTeGeGe[5mC]eTeG*eA*e[5mC]*e[5mC]) 1.8

And for CO-5305: CO-3595 modified to include varying PO/PS internucleotide bonds (antisense e[5mC]*e[5mC]*eT*eG*eA*eA*e[5mC]eTeGeTeAeTeGeGe[5mC]eTeG*eA*e[5mC]*e[5mC]) ? 1.6

What do we get for CO-5310: CO-3595 modified to include varying PO/PS internucleotide bonds (antisense e[5mC]*e[5mC]*eTeGeAeAe[5mC]eTeGeTeAeTeGeG*e[5mC]*eT*eG*eA*e[5mC]*e[5mC]) ? 1.3

---
Quick check: 160 nM FC (mGrn mRNA) on mGrn mRNA, item CO-5307: CO-3595 modified to include varying PO/PS internucleotide bonds (antisense e[5mC]*e[5mC]*eT*eG*eA*eA*e[5mC]*eT*eG*eT*eAeTeGeGe[5mC]eTeG*eA*e[5mC]*e[5mC]) ? 1.1
